Test system: Plasmodium falciparum
Test: Antimalarial activity against Plasmodium falciparum 3D7 infected in RBC assessed as growth inhibition after 48 hrs by SYBR Green-I fluorescence assay
Type: functional, organism-based
Details: 3D7, 48 h
valueKind: IC50 (nM)
Answers are plain numbers, in nM.

Worked examples, 4 compounds total:
CCCC[n+]1c(/C=C/c2c[nH]c3ccccc23)cc(N)c2ccccc21
450
Nc1cc(CCc2c[nH]c3ccccc23)nc2ccccc12
900
C[n+]1c(/C=C/c2c[nH]c3ccccc23)cc(N)c2ccccc21.[I-]
200
Cc1[nH]c2ccccc2c1/C=C/c1cc(N)c2ccccc2[n+]1C.[I-]
170

Note: attention shifts to another entry.
Query: Give its IC50 value. Item: CNc1cc(/C=C/c2c(C)[nH]c3ccccc23)[n+](C)c2ccccc12
Result: 1400
